I'd appreciate it if you could supply HCR (hypoxic cytotoxicity ratio) HT29 values for the items below.
# System: HT29: human colon cancer cell line
# EXPERIMENT_DESCRIPTION: Proliferation IC50 assay, oxic/hypoxic, HT29
# Assay type: cell-based
# DETAILS: Table 3; IC50(aerobic)/IC10(hypoxic)
Give bare numbers.

COMPOUND: CN(C)CCOc1ccc2[nH]c(C(=O)N3CC(CCl)c4c3cc([N+](=O)[O-])c3ccc(S(N)(=O)=O)cc43)cc2c1 (stereo not shown)
OBSERVED_RESULT: 26

Each compound below has a reported value. Please supply its HCR (hypoxic cytotoxicity ratio) HT29.
1. COc1ccc(/C=C/C(=O)N2CC(CCl)c3c2cc([N+](=O)[O-])c2cc(S(=O)(=O)NCCO)ccc32)cc1 (stereo not shown)
2. CN(C)CCOc1ccc2[nH]c(C(=O)N3CC(CCl)c4c3cc([N+](=O)[O-])c3cc(C(=O)NCCO)ccc43)cc2c1 (stereo not shown)
3. CN(C)CCOc1ccc2[nH]c(C(=O)N3CC(CCl)c4c3cc([N+](=O)[O-])c3c([N+](=O)[O-])cccc43)cc2c1 (stereo not shown)
4. COc1cc2cc(C(=O)N3CC(CCl)c4c3cc([N+](=O)[O-])c3ccccc43)[nH]c2c(OC)c1OC (stereo not shown) [Compound R1, reference compound]

Result block:
1: 1.3; 2: 490; 3: 2.2; 4: 2.5

----------
# EXPERIMENT_DESCRIPTION: Plasma pharmacokinetics after intravenous 36 in mice (LC/MS/MS)
# Type: in vivo, CD-1 mice (nu/+ heterozygotes)
# DETAILS: CD-1 (nu/+ heterozygotes), mouse, iv, 42.1 umol/kg; plasma, CD-1 mice, 36 i.v. 42.1 μmol/kg; 35 as metabolite of 36; mean; read-out: T1/2 (terminal half-life)
MEASUREMENT_TYPE: half-life

Query block: For the compound CN(C)CCOc1ccc2[nH]c(C(=O)N3CC(CCl)c4c3cc([N+](=O)[O-])c3cc(S(=O)(=O)NCCO)ccc43)cc2c1 (stereo not shown) [Compound 35] , report half-life.
Result block: 43 min

----------
I'd appreciate it if you could supply HCR (hypoxic cytotoxicity ratio) HT29 values for the items below.
# Tested on: HT29: human colon cancer cell line
# EXPERIMENT_DESCRIPTION: Proliferation IC50 assay, oxic/hypoxic, HT29
# Format: cell-based
# DETAILS: Table 3; IC50(aerobic)/IC10(hypoxic)

These solved cases illustrate the format of a correct answer.
COMPOUND: COc1cc2cc(C(=O)N3CC(CCl)c4c3cc([N+](=O)[O-])c3cc(C(N)=O)ccc43)[nH]c2c(OC)c1OC (stereo not shown)
HCR (hypoxic cytotoxicity ratio) HT29: 2.8

COMPOUND: COc1cc2cc(C(=O)N3CC(CCl)c4c3cc([N+](=O)[O-])c3cc([N+](=O)[O-])ccc43)[nH]c2c(OC)c1OC (stereo not shown)
HCR (hypoxic cytotoxicity ratio) HT29: 12

COMPOUND: CN(C)CCOc1ccc2[nH]c(C(=O)N3CC(CCl)c4c3cc([N+](=O)[O-])c3c(C#N)cccc43)cc2c1 (stereo not shown)
HCR (hypoxic cytotoxicity ratio) HT29: 1.1

COMPOUND: COc1cc2cc(C(=O)N3CC(CCl)c4c3cc([N+](=O)[O-])c3ccc(S(C)(=O)=O)cc43)[nH]c2c(OC)c1OC (stereo not shown)
HCR (hypoxic cytotoxicity ratio) HT29: 2.5

COMPOUND: CNS(=O)(=O)c1ccc2c3c(cc([N+](=O)[O-])c2c1)N(C(=O)c1cc2cc(OCCN(C)C)ccc2[nH]1)CC3CCl (stereo not shown)
HCR (hypoxic cytotoxicity ratio) HT29: 24

Each compound below has a reported value. Please supply its HCR (hypoxic cytotoxicity ratio) HT29.
1. CN(C)CCOc1ccc2[nH]c(C(=O)N3CC(CCl)c4c3cc([N+](=O)[O-])c3cc(S(=O)(=O)NO)ccc43)cc2c1.Cl (stereo not shown)
2. COc1cc2cc(C(=O)N3CC(CCl)c4c3cc([N+](=O)[O-])c3c(C(C)=O)cccc43)[nH]c2c(OC)c1OC (stereo not shown)
3. CC(=O)c1ccc2c([N+](=O)[O-])cc3c(c2c1)C(CCl)CN3C(=O)c1cc2cc(OCCN(C)C)ccc2[nH]1 (stereo not shown)

Result block:
1. 160
2. 2.0
3. 1.1

Each compound below has a reported value. Please supply its HCR (hypoxic cytotoxicity ratio) HT29.
1. CN(C)CCOc1ccc2[nH]c(C(=O)N3CC(CCl)c4c3cc([N+](=O)[O-])c3cc(S(=O)(=O)NN)ccc43)cc2c1.Cl.Cl (stereo not shown)
2. COc1cc2cc(C(=O)N3CC(CCl)c4c3cc([N+](=O)[O-])c3cc(C(=O)NCCN(C)C)ccc43)[nH]c2c(OC)c1OC (stereo not shown)
3. CN(C)CCNS(=O)(=O)c1ccc2c3c(cc([N+](=O)[O-])c2c1)N(C(=O)c1cc2cc(OCCN(C)C)ccc2[nH]1)CC3CCl (stereo not shown)
4. COC(=O)c1ccc2c3c(cc([N+](=O)[O-])c2c1)N(C(=O)c1cc2cc(OC)c(OC)c(OC)c2[nH]1)CC3CCl (stereo not shown)

Result block:
220
5.9
110
3.2

----------
# EXPERIMENT_DESCRIPTION: Plasma pharmacokinetics after intravenous 36 in mice (LC/MS/MS)
# Assay type: in vivo, CD-1 mice (nu/+ heterozygotes)
# DETAILS: CD-1 (nu/+ heterozygotes), mouse, iv, 42.1 umol/kg; plasma, CD-1 mice, 36 i.v. 42.1 μmol/kg; 35 as metabolite of 36; mean; read-out: Vd (volume of distribution based on the terminal phase)
MEASUREMENT_TYPE: Vd (L/kg)
Answers are plain numbers, in L/kg.

Query block: For the compound CN(C)CCOc1ccc2[nH]c(C(=O)N3CC(CCl)c4c3cc([N+](=O)[O-])c3cc(S(=O)(=O)NCCO)ccc43)cc2c1 (stereo not shown) , report Vd.
Result block: 3.8

----------
# Tested on: HT29: human colon cancer cell line
# EXPERIMENT_DESCRIPTION: Proliferation IC50 assay, oxic/hypoxic, HT29
# Type: cell-based
# DETAILS: Table 3; IC50(aerobic)/IC10(hypoxic)
MEASUREMENT_TYPE: HCR (hypoxic cytotoxicity ratio) HT29
Numbers only.

COMPOUND: COc1cc2cc(C(=O)N3CC(CCl)c4c3cc([N+](=O)[O-])c3cc(S(C)(=O)=O)ccc43)[nH]c2c(OC)c1OC (stereo not drawn) [Compound 23]
HCR (hypoxic cytotoxicity ratio) HT29: 2.0
--
COMPOUND: COc1cc2cc(C(=O)N3CC(CCl)c4c3cc([N+](=O)[O-])c3cc(C#N)ccc43)[nH]c2c(OC)c1OC (stereo not drawn) [Compound 21]
HCR (hypoxic cytotoxicity ratio) HT29: 2.5

Please turn your attention to the following entry.
Query block: For the compound CN(C)CCOc1ccc2[nH]c(C(=O)N3CC(CCl)c4c3cc([N+](=O)[O-])c3cc(S(C)(=O)=O)ccc43)cc2c1 (stereo not drawn) [Compound 24] , report HCR (hypoxic cytotoxicity ratio) HT29.
Result block: 4.0

----------
# Tested on: SKOV3: human ovarian carcinoma cell line
# EXPERIMENT_DESCRIPTION: Proliferation IC50 assay, oxic/hypoxic, SKOV3
# Assay type: cell-based
# DETAILS: Table 3; IC50(aerobic)/IC10(hypoxic)
Returns satisfied if the recorded HCR (hypoxic cytotoxicity ratio) SKOV3 is greater than or equal to 3, and not satisfied otherwise.

Query block: Threshold query (HCR (hypoxic cytotoxicity ratio) SKOV3 >= 3) on COC(=O)c1ccc2c3c(cc([N+](=O)[O-])c2c1)N(C(=O)c1cc2cc(OCCN(C)C)ccc2[nH]1)CC3CCl (centres unmarked) [Compound 14]
Result block: not satisfied

Query block: Threshold query (HCR (hypoxic cytotoxicity ratio) SKOV3 >= 3) on CN(C)CCOc1ccc2[nH]c(C(=O)N3CC(CCl)c4c3cc([N+](=O)[O-])c3cc(N)ccc43)cc2c1 (centres unmarked) [Compound 10]
Result block: not satisfied

Query block: Threshold query (HCR (hypoxic cytotoxicity ratio) SKOV3 >= 3) on COc1cc2cc(C(=O)N3CC(CCl)c4c3cc([N+](=O)[O-])c3ccc(S(C)(=O)=O)cc43)[nH]c2c(OC)c1OC (centres unmarked) [Compound 46]
Result block: satisfied

----------
I'd appreciate it if you could supply IC50 values for the items below.
# Test system: HT29: human colon cancer cell line
# EXPERIMENT_DESCRIPTION: Proliferation IC50 assay, oxic/hypoxic, HT29
# Format: cell-based
# DETAILS: Homo sapiens, HT-29; Table 3; 4 h exposure under aerobic conditions
// unit must come after the numeric part

These solved cases illustrate the format of a correct answer.
COMPOUND: CN(C)CCNS(=O)(=O)c1ccc2c3c(cc([N+](=O)[O-])c2c1)N(C(=O)c1cc2cc(OCCN(C)C)ccc2[nH]1)CC3CCl (stereo not drawn)
OBSERVED_RESULT: 730 nM

COMPOUND: CN(C)CCOc1ccc2[nH]c(C(=O)N3CC(CCl)c4c3cc([N+](=O)[O-])c3ccc(S(N)(=O)=O)cc43)cc2c1 (stereo not drawn)
OBSERVED_RESULT: 9000 nM

COMPOUND: CN(C)CCOc1ccc2[nH]c(C(=O)N3CC(CCl)c4c3cc([N+](=O)[O-])c3ccc(C(N)=O)cc43)cc2c1 (stereo not drawn)
OBSERVED_RESULT: 2800 nM

COMPOUND: CNS(=O)(=O)c1ccc2c3c(cc([N+](=O)[O-])c2c1)N(C(=O)c1cc2cc(OCCN(C)C)ccc2[nH]1)CC3CCl (stereo not drawn)
OBSERVED_RESULT: 2700 nM

COMPOUND: COC(=O)c1ccc2c3c(cc([N+](=O)[O-])c2c1)N(C(=O)c1cc2cc(OC)c(OC)c(OC)c2[nH]1)CC3CCl (stereo not drawn)
OBSERVED_RESULT: 1900 nM

Each compound below has a reported value. Please supply its IC50.
1. COc1ccc(/C=C/C(=O)N2CC(CCl)c3c2cc([N+](=O)[O-])c2cc(S(N)(=O)=O)ccc32)cc1O (stereo not drawn)
2. COC(=O)c1ccc2c([N+](=O)[O-])cc3c(c2c1)C(CCl)CN3C(=O)c1cc2cc(OCCN(C)C)ccc2[nH]1 (stereo not drawn)
3. COc1cc2cc(C(=O)N3CC(CCl)c4c3cc([N+](=O)[O-])c3cc(C(=O)NCCN(C)C)ccc43)[nH]c2c(OC)c1OC (stereo not drawn)
4. CN(C)CCOc1ccc2[nH]c(C(=O)N3CC(CCl)c4c3cc([N+](=O)[O-])c3c(C(N)=O)cccc43)cc2c1 (stereo not drawn)
5. CC(=O)c1ccc2c3c(cc([N+](=O)[O-])c2c1)N(C(=O)c1cc2cc(OCCN(C)C)ccc2[nH]1)CC3CCl (stereo not drawn)
6. COc1ccc(/C=C/C(=O)N2CC(CCl)c3c2cc([N+](=O)[O-])c2cc(C(=O)NCCO)ccc32)cc1 (stereo not drawn)
7. CC(=O)c1ccc2c([N+](=O)[O-])cc3c(c2c1)C(CCl)CN3C(=O)c1cc2cc(OCCN(C)C)ccc2[nH]1 (stereo not drawn)
8. CN(C)CCOc1ccc2[nH]c(C(=O)N3CC(CCl)c4c3cc([N+](=O)[O-])c3cc(S(N)(=O)=O)ccc43)cc2c1 (stereo not drawn)

Result block:
1: 2400 nM; 2: 550 nM; 3: 1500 nM; 4: 23000 nM; 5: 170 nM; 6: 4400 nM; 7: 150 nM; 8: 4600 nM
